target system: Arabidopsis HPPD F381I (Arabidopsis thaliana, UniProt P93836, F381I);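 also: reaction started with 4-HPP at 0.05 mM after 30 min preincubation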
Construct: His6 (N); made in house; host or cells: E. coli BL21 (DE3)
Sequence (P93836 whole entry F381I): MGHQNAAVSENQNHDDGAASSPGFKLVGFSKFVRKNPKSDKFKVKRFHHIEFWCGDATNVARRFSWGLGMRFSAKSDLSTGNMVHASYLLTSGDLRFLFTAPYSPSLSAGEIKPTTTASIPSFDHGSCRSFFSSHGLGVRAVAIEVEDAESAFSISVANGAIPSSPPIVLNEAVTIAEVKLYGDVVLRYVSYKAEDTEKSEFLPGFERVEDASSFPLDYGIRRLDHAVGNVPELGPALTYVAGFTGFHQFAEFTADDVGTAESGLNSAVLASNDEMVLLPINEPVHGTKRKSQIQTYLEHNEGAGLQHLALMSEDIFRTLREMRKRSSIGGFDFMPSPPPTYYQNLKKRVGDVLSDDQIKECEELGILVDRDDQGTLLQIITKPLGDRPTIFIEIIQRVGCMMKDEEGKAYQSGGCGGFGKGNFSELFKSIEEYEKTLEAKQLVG
Assay type: biochemical
test conditions: Arabidopsis HPPD variant F381I; normalized on wild-type
quantity name: Normalized tolerance index (TI)
One number for each entry.

Solved entries (count: 3):
INSERT INTO results (compound, quantity_name, measured_result) VALUES
  ('COCCOCc1nc(C(F)(F)F)ccc1C(=O)C1=C(O)C2CCC(C2)C1=O (stereo not shown)', 'Normalized tolerance index (TI)', 0.1),
  ('CS(=O)(=O)c1ccc(C(=O)C2C(=O)CCCC2=O)c([N+](=O)[O-])c1', 'Normalized tolerance index (TI)', 0.1),
  ('Cc1c(C(=O)c2cnn(C)c2O)ccc(S(C)(=O)=O)c1C1=NOCC1', 'Normalized tolerance index (TI)', 10.8);

// next entry
### Prompt For `CS(=O)(=O)c1ccc(C(=O)C2C(=O)CCCC2=O)c(Cl)c1COCC(F)(F)F` , what is its reported Normalized tolerance index (TI)?
### Response 0.1
